tested-on: T1, insulin-like growth factor II (IGF-II), amino acids 1-67 (human, UniProt P01344 25-91)
T1 construct: recombinant; also called IGF-II (67aa); IGF2
protocol-summary: SPR (Flexchip), Fab, 1st of duplicate
experimental-endpoint: Kd (nM)
Note: unit nM is implicit; provide only the numeric part.

The recorded Kd for entry M0070-H08 Fab (Fab, V domains shown, soluble Fab (sFab); also called R0032-A07) VH: EVQLLESGGGLVQPGGSLRLSCAASGFTFSRYWMIWVRQAPGKGLEWVSSIRSSGETKYADSVKGRFTISRDNSKNTLYLQMNSLRAEDTAVYYCARGPLSDYYDSSGYYFDAFDIWGQGTMVTVSS VL: DIQMTQSPSSLSASAGDRVTITCRASQSISSYLNWYQQKPGKAPNLLIYTTSNLQGGVPSRFSGSGSGTDFTLTISSLQPEDFATYYCQQGYSFPLTFGGGTKVEIKR equals 3.3
